experiment: Pharmacokinetics in blood and vital organs; assay type: in vivo, Wistar rats; conditions: male, Wistar, rat, liver, po
readout label: Tmax (min)
# output: bare number, implied unit min

Noted for C/C=C1\[C@H]2C=C(C)C[C@]1(N)c1ccc(=O)[nH]c1C2 : its Tmax reads 30

----------
test: Pharmacokinetics in blood and vital organs; type: in vivo, Wistar rats; conditions: male, Wistar, rat, lung, po
readout label: Cmax (ng/mL)
# output: bare number, implied unit ng/mL

Noted for C/C=C1\[C@H]2C=C(C)C[C@]1(N)c1ccc(=O)[nH]c1C2 : its Cmax reads 173

----------
assay: Pharmacokinetics in blood and vital organs; type: in vivo, Wistar rats; settings: male, Wistar, rat, brain, po
readout label: MRT last
Record the result as a number with its unit.

Noted for C/C=C1\[C@H]2C=C(C)C[C@]1(N)c1ccc(=O)[nH]c1C2 : its MRT last reads 1.49 h

----------
test: Pharmacokinetics in blood and vital organs; assay type: in vivo, Wistar rats; settings: male, Wistar, rat, brain, po
readout label: Tmax
Record the result as a number with its unit.

Noted for C/C=C1\[C@H]2C=C(C)C[C@]1(N)c1ccc(=O)[nH]c1C2 : its Tmax reads 30 min

----------
test: Pharmacokinetics in blood and vital organs; format: in vivo, Wistar rats; conditions: male, Wistar, rat, lung, po
readout label: half-life (h)
# output: bare number, implied unit h

Noted for C/C=C1\[C@H]2C=C(C)C[C@]1(N)c1ccc(=O)[nH]c1C2 [HupA Solution, huperzine A] : its half-life reads 2.49

----------
assay: Pharmacokinetics in blood and vital organs; format: in vivo, Wistar rats; conditions: male, Wistar, rat, plasma, po
readout label: MRT last

Noted for C/C=C1\[C@H]2C=C(C)C[C@]1(N)c1ccc(=O)[nH]c1C2 : its MRT last reads 1.31 h

----------
assay: Pharmacokinetics in blood and vital organs; type: in vivo, Wistar rats; conditions: male, Wistar, rat, lung, po
readout label: MRT last (h)
# output: bare number, implied unit h

Noted for C/C=C1\[C@H]2C=C(C)C[C@]1(N)c1ccc(=O)[nH]c1C2 : its MRT last reads 2.28

----------
assay: Pharmacokinetics in blood and vital organs; format: in vivo, Wistar rats; conditions: male, Wistar, rat, plasma, po
readout label: half-life (h)
# output: bare number, implied unit h

Noted for C/C=C1\[C@H]2C=C(C)C[C@]1(N)c1ccc(=O)[nH]c1C2 [HupA Solution, huperzine A] : its half-life reads 1.77

----------
assay: Pharmacokinetics in blood and vital organs; format: in vivo, Wistar rats; settings: male, Wistar, rat, plasma, po
readout label: Cmax (ng/mL)
# output: bare number, implied unit ng/mL

Noted for C/C=C1\[C@H]2C=C(C)C[C@]1(N)c1ccc(=O)[nH]c1C2 : its Cmax reads 109

----------
assay: Pharmacokinetics in blood and vital organs; format: in vivo, Wistar rats; conditions: male, Wistar, rat, heart, po
readout label: AUC(0-t)
Record the result as a number with its unit.

Noted for C/C=C1\[C@H]2C=C(C)C[C@]1(N)c1ccc(=O)[nH]c1C2 : its AUC(0-t) reads 163 ng·h/mL

----------
experiment: Pharmacokinetics in blood and vital organs; assay type: in vivo, Wistar rats; conditions: male, Wistar, rat, kidney, po
readout label: Tmax (h)
# output: bare number, implied unit h

Noted for C/C=C1\[C@H]2C=C(C)C[C@]1(N)c1ccc(=O)[nH]c1C2 : its Tmax reads 1

----------
assay: Pharmacokinetics in blood and vital organs; format: in vivo, Wistar rats; settings: male, Wistar, rat, heart, po
readout label: Cmax (ng/mL)
# output: bare number, implied unit ng/mL

Noted for C/C=C1\[C@H]2C=C(C)C[C@]1(N)c1ccc(=O)[nH]c1C2 : its Cmax reads 163

----------
assay: Pharmacokinetics in blood and vital organs; assay type: in vivo, Wistar rats; details: male, Wistar, rat, plasma, po
readout label: AUC(0-t) (ng·h/mL)
# output: bare number, implied unit ng·h/mL

Noted for C/C=C1\[C@H]2C=C(C)C[C@]1(N)c1ccc(=O)[nH]c1C2 : its AUC(0-t) reads 119

----------
experiment: Pharmacokinetics in blood and vital organs; type: in vivo, Wistar rats; settings: male, Wistar, rat, liver, po
readout label: AUC(0-t) (ng·h/mL)
# output: bare number, implied unit ng·h/mL

Noted for C/C=C1\[C@H]2C=C(C)C[C@]1(N)c1ccc(=O)[nH]c1C2 : its AUC(0-t) reads 424

----------
experiment: Pharmacokinetics in blood and vital organs; format: in vivo, Wistar rats; settings: male, Wistar, rat, kidney, po
readout label: MRT last (h)
# output: bare number, implied unit h

Noted for C/C=C1\[C@H]2C=C(C)C[C@]1(N)c1ccc(=O)[nH]c1C2 : its MRT last reads 2.78

----------
assay: Pharmacokinetics in blood and vital organs; type: in vivo, Wistar rats; details: male, Wistar, rat, spleen, po
readout label: Tmax (h)
# output: bare number, implied unit h

Noted for C/C=C1\[C@H]2C=C(C)C[C@]1(N)c1ccc(=O)[nH]c1C2 [HupA Solution, huperzine A] : its Tmax reads 1

----------
assay: Pharmacokinetics in blood and vital organs; type: in vivo, Wistar rats; settings: male, Wistar, rat, kidney, po
readout label: AUC(0-t) (ng·h/mL)
# output: bare number, implied unit ng·h/mL

Noted for C/C=C1\[C@H]2C=C(C)C[C@]1(N)c1ccc(=O)[nH]c1C2 : its AUC(0-t) reads 1350

----------
assay: Pharmacokinetics in blood and vital organs; assay type: in vivo, Wistar rats; settings: male, Wistar, rat, kidney, po
readout label: Cmax
Record the result as a number with its unit.

Noted for C/C=C1\[C@H]2C=C(C)C[C@]1(N)c1ccc(=O)[nH]c1C2 : its Cmax reads 567 ng/mL

----------
assay: Pharmacokinetics in blood and vital organs; type: in vivo, Wistar rats; details: male, Wistar, rat, spleen, po
readout label: Cmax (ng/mL)
# output: bare number, implied unit ng/mL

Noted for C/C=C1\[C@H]2C=C(C)C[C@]1(N)c1ccc(=O)[nH]c1C2 : its Cmax reads 195

----------
assay: Pharmacokinetics in blood and vital organs; format: in vivo, Wistar rats; conditions: male, Wistar, rat, brain, po
readout label: AUC(0-t)

Noted for C/C=C1\[C@H]2C=C(C)C[C@]1(N)c1ccc(=O)[nH]c1C2 [HupA Solution, huperzine A] : its AUC(0-t) reads 28.6 ng·h/mL

----------
assay: Pharmacokinetics in blood and vital organs; type: in vivo, Wistar rats; settings: male, Wistar, rat, plasma, po
readout label: Tmax (min)
# output: bare number, implied unit min

Noted for C/C=C1\[C@H]2C=C(C)C[C@]1(N)c1ccc(=O)[nH]c1C2 [HupA Solution, huperzine A] : its Tmax reads 30

----------
assay: Pharmacokinetics in blood and vital organs; format: in vivo, Wistar rats; details: male, Wistar, rat, brain, po
readout label: Cmax
Record the result as a number with its unit.

Noted for C/C=C1\[C@H]2C=C(C)C[C@]1(N)c1ccc(=O)[nH]c1C2 [HupA Solution, huperzine A] : its Cmax reads 15 ng/mL
